Cited source: patent US4530836A

test system: gallbladder; assay type: in vivo, guinea pig; conditions: guinea pig, compared with CCK-8
Starred links: 1 amine or outer side, 2 acyl side, 3 side chain; linkers in the order of their positions; H or OH if unused. Non-standard residues stand in square brackets, D forms with d. Residues, ends and D or L forms follow the SMILES beside them. sY = N[C@@H](Cc1ccc(OS(=O)(=O)O)cc1)C(=O)O; Suc = O=C(CCC(=O)[*:2])[*:1]
value-kind: Gallbladder contracting activity (in words)

compound	meas-value
CSCC[C@H](NC(=O)[C@H](Cc1c[nH]c2ccccc12)NC(=O)[C@@H](Cc1c[nH]c2ccccc12)NC(=O)[C@H](CCSC)NC(=O)[C@H](Cc1ccc(OS(=O)(=O)O)cc1)NC(=O)CCC(=O)O)C(=O)N[C@@H](CC(=O)O)C(=O)N[C@@H](Cc1ccccc1)C(N)=O [Compound IV] (Suc-[sY]M[dW]WMDF-NH2)	mild
